- experiment.notes: EPSA determination by supercritical fluid chromatography
- Format: physicochemical
- condition.context: modified EPSA method, SFC
Starred links: 1 amine or outer side, 2 acyl side, 3 side chain; linkers in the order of their positions; H or OH if unused. Positions of bridges follow the written chain, without caps; N, C: chain ends. Non-standard residues stand in square brackets, D forms with d. Residues, ends and D or L forms follow the SMILES beside them. ξ: configuration not given here. *: point of attachment. Leu(3R-O(AcLeu(3R-OH))) = CC(=O)N[C@H](C(=O)O[C@H](C(C)C)[C@H](N)C(=O)O)[C@H](O)C(C)C; Leu(3R-OH,Nα-propionyl) = CCC(=O)N[C@H](C(=O)*)[C@H](O)C(C)C; X1 = CC(C)[C@@H](O[*:3])[C@H](N[*:1])C(=O)[*:2]; X5 = CSC[C@@H](O[*:3])[C@H](N[*:1])C(=O)[*:2]; X3 = CC(C)C(O[*:3])C(N[*:1])C(=O)[*:2]; X4 = CCC(=O)N[C@H](C(=O)*)[C@H](O)CSC; ξLeu(3ξ-OH) = CC(C)C(O)C(N)C(=O)O; NMeT = CN[CH](C(=O)O)[CH](C)O; dPhLac = O=C(O)[C@H](O)Cc1ccccc1; X2 = CC(C)C=C(N[*:1])C(=O)[*:2]; PhLac = O=C(O)[CH](O)Cc1ccccc1; NMeA = CN[CH](C)C(=O)O; dNMeA = CN[C@H](C)C(=O)O; NMeDha = C=C(NC)C(=O)O
Give measured EPSA for each item. Keep answers brief.

Input: Find the recorded EPSA belonging to C=C1C(=O)N[C@@H](C)C(=O)N(C)[C@@H](C)C(=O)N[C@@H]([C@H](OC(=O)[C@@H](NC(=O)CC)[C@H](O)C(C)C)C(C)C)C(=O)N(C)[C@@H]([C@@H](C)OC)C(=O)O[C@H](C)[C@H](NC(C)=O)C(=O)O[C@H](Cc2ccccc2)C(=O)N1C [Compound 14] (Ac-T[dPhLac][NMeDha]A[NMeA][X1](Leu(3R-OH,Nα-propionyl))[NMeT](Me); ester 1-C) and report it.
Output: 95 A^2

Input: Find the recorded EPSA belonging to CCC(=O)N[C@H](C(=O)O[C@H](C(C)C)[C@@H]1NC(=O)[C@H](C)N(C)C(=O)[C@H](C)NC(=O)[C@@H](C)N(C)C(=O)[C@@H](Cc2ccccc2)OC(=O)[C@@H](NC(C)=O)[C@@H](C(C)C)OC(=O)[C@H]([C@@H](C)OC)N(C)C1=O)[C@H](O)C(C)C [Compound 11] (Ac-[X1][dPhLac][dNMeA]A[NMeA][X1](Leu(3R-OH,Nα-propionyl))[NMeT](Me); ester 1-C) and report it.
Output: 95 A^2

Input: Find the recorded EPSA belonging to C=C1C(=O)N[C@@H](C)C(=O)N(C)[C@@H](C)C(=O)N[C@@H]([C@H](OC(=O)[C@@H](NC(C)=O)[C@H](O)C(C)C)C(C)C)C(=O)N(C)[C@@H]([C@@H](C)OC)C(=O)O[C@H](C(C)C)[C@H](NC(C)=O)C(=O)O[C@H](Cc2ccccc2)C(=O)N1C [Compound 8] (Ac-[X1][dPhLac][NMeDha]A[NMeA][Leu(3R-O(AcLeu(3R-OH)))][NMeT](Me); ester 1-C) and report it.
Output: 94 A^2

Input: Find the recorded EPSA belonging to C=C1C(=O)N[C@@H](C)C(=O)N(C)[C@@H](C)C(=O)N[C@@H]([C@H](OC(=O)[C@@H](NC(C)=O)[C@H](O)C(C)C)C(C)C)C(=O)N(C)[C@@H]([C@@H](C)OC)C(=O)O[C@H](C)[C@H](NC(C)=O)C(=O)O[C@H](Cc2ccccc2)C(=O)N1C [Compound 13] (Ac-T[dPhLac][NMeDha]A[NMeA][Leu(3R-O(AcLeu(3R-OH)))][NMeT](Me); ester 1-C) and report it.
Output: 95 A^2

Input: Find the recorded EPSA belonging to C=C1C(=O)NC(C)C(=O)N(C)C(C)C(=O)NC(C(O)C(C)C)C(=O)N(C)C(C(C)OC)C(=O)OC(C(C)C)C(NC(C)=O)C(=O)OC(Cc2ccccc2)C(=O)N1C (centres unmarked) [Compound 12] (Ac-[X3][PhLac][NMeDha]A[NMeA][ξLeu(3ξ-OH)][NMeT](Me); ester 1-C; configuration not given here) and report it.
Output: 106 A^2

Input: Find the recorded EPSA belonging to C=C1C(=O)N[C@@H](C)C(=O)N(C)[C@@H](C)C(=O)N[C@@H]([C@@H](CSC)OC(=O)[C@@H](NC(=O)CC)[C@H](O)C(C)C)C(=O)N(C)[C@@H]([C@@H](C)OC)C(=O)O[C@H](C(C)C)[C@H](NC(C)=O)C(=O)O[C@H](Cc2ccccc2)C(=O)N1C [Compound 3] (Ac-[X1][dPhLac][NMeDha]A[NMeA][X5](Leu(3R-OH,Nα-propionyl))[NMeT](Me); ester 1-C) and report it.
Output: 98 A^2

Input: Find the recorded EPSA belonging to C=C1C(=O)N[C@@H](C)C(=O)N(C)[C@@H](C)C(=O)N[C@@H]([C@H](OC(=O)[C@@H](NC(=O)CC)[C@H](O)CSC)C(C)C)C(=O)N(C)[C@@H]([C@@H](C)OC)C(=O)O[C@H](C(C)C)[C@H](NC(C)=O)C(=O)O[C@H](Cc2ccccc2)C(=O)N1C [Compound 4] (Ac-[X1][dPhLac][NMeDha]A[NMeA][X1](X4)[NMeT](Me); ester 1-C) and report it.
Output: 104 A^2

Input: Find the recorded EPSA belonging to C=C(C(=O)N[C@@H](C)C(=O)N(C)[C@@H](C)C(=O)N[C@H](C(=O)N(C)[C@H](C(=O)O)[C@@H](C)OC)[C@H](OC(=O)[C@@H](NC(=O)CC)[C@H](O)C(C)C)C(C)C)N(C)C(=O)[C@@H](Cc1ccccc1)OC(=O)C(=CC(C)C)NC(C)=O [Compound 5] (Ac-[X2][dPhLac][NMeDha]A[NMeA][X1](Leu(3R-OH,Nα-propionyl))[NMeT](Me)-OH) and report it.
Output: 229 A^2

---

Give measured GI50 for each item. Keep answers brief.
- Test system: MP41 uveal melanoma cell line (heterozygous GNA11 Q209L)
- experiment.notes: Cell proliferation assay (resazurin cell viability), MP41 cell line
- Assay type: cell-based
- condition.context: MP41 (GNA11 Q209L); 96 hours of treatment; read-out: GI50 by cell line, MP41
Starred links: 1 amine or outer side, 2 acyl side, 3 side chain; linkers in the order of their positions; H or OH if unused. Positions of bridges follow the written chain, without caps; N, C: chain ends. Non-standard residues stand in square brackets, D forms with d. Residues, ends and D or L forms follow the SMILES beside them. *: point of attachment. Leu(3R-OH,Nα-propionyl) = CCC(=O)N[C@H](C(=O)*)[C@H](O)C(C)C; X1 = CC(C)[C@@H](O[*:3])[C@H](N[*:1])C(=O)[*:2]; X5 = CSC[C@@H](O[*:3])[C@H](N[*:1])C(=O)[*:2]; NMeT = CN[C@H](C(=O)O)[C@@H](C)O; dPhLac = O=C(O)[C@H](O)Cc1ccccc1; NMeA = CN[C@@H](C)C(=O)O; dNMeA = CN[C@H](C)C(=O)O; NMeDha = C=C(NC)C(=O)O; Propionyl = CCC(=O)*
Answer in nM, number only, no unit symbol.

Input: Find the recorded GI50 belonging to C=C1C(=O)N[C@@H](C)C(=O)N(C)[C@@H](C)C(=O)N[C@@H]([C@H](OC(=O)[C@@H](NC(=O)CC)[C@H](O)C(C)C)C(C)C)C(=O)N(C)[C@@H]([C@@H](C)OC)C(=O)O[C@H](C(C)C)[C@H](NC(=O)CC)C(=O)O[C@H](Cc2ccccc2)C(=O)N1C [Compound 9] (Propionyl-[X1][dPhLac][NMeDha]A[NMeA][X1](Leu(3R-OH,Nα-propionyl))[NMeT](Me); ester 1-C) and report it.
Output: 0.7

Input: Find the recorded GI50 belonging to CCC(=O)N[C@H](C(=O)O[C@H](C(C)C)[C@@H]1NC(=O)[C@H](C)N(C)C(=O)[C@H](C)NC(=O)[C@@H](C)N(C)C(=O)[C@@H](Cc2ccccc2)OC(=O)[C@@H](NC(C)=O)[C@@H](C(C)C)OC(=O)[C@H]([C@@H](C)OC)N(C)C1=O)[C@H](O)C(C)C [Compound 11] (Ac-[X1][dPhLac][dNMeA]A[NMeA][X1](Leu(3R-OH,Nα-propionyl))[NMeT](Me); ester 1-C) and report it.
Output: 0.7

Input: Find the recorded GI50 belonging to C=C1C(=O)N[C@@H](C)C(=O)N(C)[C@@H](C)C(=O)N[C@@H]([C@@H](CSC)OC(=O)[C@@H](NC(=O)CC)[C@H](O)C(C)C)C(=O)N(C)[C@@H]([C@@H](C)OC)C(=O)O[C@H](C(C)C)[C@H](NC(C)=O)C(=O)O[C@H](Cc2ccccc2)C(=O)N1C [Compound 3] (Ac-[X1][dPhLac][NMeDha]A[NMeA][X5](Leu(3R-OH,Nα-propionyl))[NMeT](Me); ester 1-C) and report it.
Output: 4
